STUDY SYSTEM: Voltage-gated inwardly rectifying potassium channel KCNH2 (Homo sapiens, UniProt Q12809)
Sequence (Q12809 whole entry): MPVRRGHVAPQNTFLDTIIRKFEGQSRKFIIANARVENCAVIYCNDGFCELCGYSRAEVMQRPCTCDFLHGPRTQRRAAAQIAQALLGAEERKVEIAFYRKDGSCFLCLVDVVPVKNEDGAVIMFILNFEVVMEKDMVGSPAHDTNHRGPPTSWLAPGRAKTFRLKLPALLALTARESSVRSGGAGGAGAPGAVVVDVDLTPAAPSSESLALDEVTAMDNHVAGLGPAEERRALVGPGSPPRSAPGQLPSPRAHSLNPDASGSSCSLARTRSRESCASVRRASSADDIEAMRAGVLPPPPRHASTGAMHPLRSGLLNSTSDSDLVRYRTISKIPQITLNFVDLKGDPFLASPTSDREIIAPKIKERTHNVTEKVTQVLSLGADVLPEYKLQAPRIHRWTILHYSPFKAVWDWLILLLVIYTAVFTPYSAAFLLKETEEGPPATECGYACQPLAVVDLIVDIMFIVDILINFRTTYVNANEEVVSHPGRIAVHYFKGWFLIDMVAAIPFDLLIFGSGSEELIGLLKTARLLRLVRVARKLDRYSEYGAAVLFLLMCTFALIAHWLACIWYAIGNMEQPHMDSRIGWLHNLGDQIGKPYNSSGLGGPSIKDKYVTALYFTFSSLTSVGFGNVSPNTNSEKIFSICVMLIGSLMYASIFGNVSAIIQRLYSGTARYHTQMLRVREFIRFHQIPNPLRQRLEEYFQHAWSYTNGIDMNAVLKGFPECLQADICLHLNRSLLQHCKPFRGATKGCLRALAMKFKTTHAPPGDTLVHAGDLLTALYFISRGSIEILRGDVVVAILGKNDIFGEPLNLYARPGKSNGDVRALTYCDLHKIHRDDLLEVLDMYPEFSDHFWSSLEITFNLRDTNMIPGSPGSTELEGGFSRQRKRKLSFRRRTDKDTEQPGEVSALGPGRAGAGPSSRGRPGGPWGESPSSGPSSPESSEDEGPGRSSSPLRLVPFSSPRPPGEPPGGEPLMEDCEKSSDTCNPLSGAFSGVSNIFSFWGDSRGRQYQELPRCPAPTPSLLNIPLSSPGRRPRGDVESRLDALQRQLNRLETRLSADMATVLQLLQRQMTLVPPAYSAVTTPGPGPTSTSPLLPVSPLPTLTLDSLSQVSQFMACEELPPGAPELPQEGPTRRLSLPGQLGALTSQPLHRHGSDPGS
ASSAY: Inhibition of human ERG by competitive fluorescence polarization assay
MEASUREMENT NAME: pIC50
Schema: pIC50 number; meaning minus log10 of the concentration expressed in molar units.

Please tell me: pIC50 of Nc1cc(F)c(S(=O)(=O)N2CCC(O)CC2)cc1C(=O)Nc1cc(F)c(F)c(F)c1 , system Voltage-gated inwardly rectifying potassium channel KCNH2 (Homo sapiens, UniProt Q12809)?
4.96

====

ASSAY: Stability in rat plasma assessed as compound remaining at 5 uM incubated for 4 hrs by LC/MS/MS analysis
Format: ADME, cell-free
RUN CONDITIONS: read-out: Stability
MEASUREMENT NAME: remaining at 4 h, 5 µM (%)
// return numeric value only (unit: %, not printed)

Fill in the blank: the reported remaining at 4 h, 5 µM of Nc1cc(F)c(S(=O)(=O)N2CCC(O)CC2)cc1C(=O)Nc1cc(F)c(F)c(F)c1 is ____.
90.1

====

ASSAY: Protein binding in human plasma assessed as compound remaining at 5 uM incubated for 4 hrs by LC/MS/MS analysis
Format: ADME, cell-free
RUN CONDITIONS: read-out: PPB (converted)
MEASUREMENT NAME: fraction unbound at 4 h, 5 µM
Give the figure by itself; no unit, no explanation.

May I ask what fraction unbound at 4 h, 5 µM has been recorded for Nc1cc(F)c(S(=O)(=O)N2CCC(O)CC2)cc1C(=O)Nc1cc(F)c(F)c(F)c1 ?
0.0073

====

ASSAY: Stability in human plasma assessed as compound remaining at 5 uM incubated for 4 hrs by LC/MS/MS analysis
Format: ADME, cell-free
RUN CONDITIONS: read-out: Stability
MEASUREMENT NAME: remaining at 4 h, 5 µM

Any idea what its remaining at 4 h, 5 µM is? The compound is Nc1cc(F)c(S(=O)(=O)N2CCC(O)CC2)cc1C(=O)Nc1cc(F)c(F)c(F)c1
71.9%

====

ASSAY: Cytotoxicity against human HepAD38 cells assessed as reduction in cell viability incubated for 65 hrs by EZ-Cytox cell viability assay
Assay type: cell-based
MEASUREMENT NAME: CC50 at 65 h (µM)
Quick reminder: number only, in µM, skip the unit.

Recorded CC50 at 65 h of Nc1cc(C(=O)Nc2cc(F)c(F)c(F)c2)cc(S(=O)(=O)N2CCC(O)CC2)c1F , please.
87.9

Moving on to the next molecule: O=C(Nc1cc(F)c(F)c(F)c1)c1ccc(F)c(S(=O)(=O)N2CCC(O)CC2)c1
57.7

Continue with O=C(Nc1cc(F)c(F)c(F)c1)c1cccc(S(=O)(=O)N2CCC(O)CC2)c1
77.7

Thanks! And Nc1cc(F)c(S(=O)(=O)N2CCC(O)CC2)cc1C(=O)Nc1cc(F)c(F)c(F)c1 ?
48.9

Here is the next molecule: Nc1ccc(S(=O)(=O)N2CCC(O)CC2)cc1C(=O)Nc1cc(F)c(F)c(F)c1
76.9

====

ASSAY: AUClast in Sprague-Dawley rat at 5 mg/kg, iv measured upto 24 hrs by LC/MS/MS analysis
Format: ADME, organism-based
Design: time < 24 hr, dose 5 mg/kg, route intravenous
RUN CONDITIONS: in vivo
MEASUREMENT NAME: AUC(0-t) at 24 h (ng·h/mL)
Your answer should be a plain number; it is taken to be in ng·h/mL.

What does the data say about its AUC(0-t) at 24 h? Entry: Nc1cc(F)c(S(=O)(=O)N2CCC(O)CC2)cc1C(=O)Nc1cc(F)c(F)c(F)c1
6300
